Tested on: RAW264.7
TEST PROTOCOL: Cytotoxicity against mouse RAW264.7 cells assessed as reduction in cell viability incubated for 24 hrs by CCK-8 method
Format: functional, cell-based
EXPERIMENTAL PARAMETERS: RAW264.7, 24 h
pIC50: −log10 of the molar value.
READOUT: pIC50

- SMILES ENTRY: "C=C1CC[C@H]2[C@@H](/C=C(\\C)C(=O)[C@@]3(O)C[C@H](C)[C@H](O)[C@@H]3[C@H]1OCc1cn(CCOCCOCCOCCNC(=O)[C@H](CC(C)C)NC(=O)[C@@H](O)[C@@H](Cc3ccccc3)NC(=O)OC(C)(C)C)nn1)C2(C)C"
  ASSAYED TARGET: "RAW264.7"
  VALUE OBSERVED: "< 4.30"
- SMILES ENTRY: "C=C1CC[C@H]2[C@@H](/C=C(\\C)C(=O)[C@@]3(O)C[C@H](C)[C@H](O)[C@@H]3[C@H]1OCc1cn(CCOCCOCCOCCOCCNC(=O)[C@H](CC(C)C)NC(=O)[C@@H](O)[C@@H](Cc3ccccc3)NC(=O)OC(C)(C)C)nn1)C2(C)C"
  ASSAYED TARGET: "RAW264.7"
  VALUE OBSERVED: "< 4.30"
- SMILES ENTRY: "C=C1CC[C@H]2[C@@H](/C=C(\\C)C(=O)[C@@]3(O)C[C@H](C)[C@H](O)[C@@H]3[C@H]1OCc1cn(CCCC(=O)N[C@H](Cc3ccccc3)[C@H](O)C(=O)N[C@@H](CC(C)C)C(=O)OC)nn1)C2(C)C"
  ASSAYED TARGET: "RAW264.7"
  VALUE OBSERVED: "< 4.30"
- SMILES ENTRY: "C=C1CC[C@H]2[C@@H](/C=C(\\C)C(=O)[C@@]3(O)C[C@H](C)[C@H](O)[C@@H]3[C@H]1OCc1cn(CCCC(=O)N[C@H](C(=O)N3C[C@H](O)C[C@H]3C(=O)NCc3ccc(-c4scnc4C)cc3)C(C)(C)C)nn1)C2(C)C"
  ASSAYED TARGET: "RAW264.7"
  VALUE OBSERVED: "< 4.30"
- SMILES ENTRY: "C=C1CC[C@H]2[C@@H](/C=C(\\C)C(=O)[C@@]3(O)C[C@H](C)[C@H](O)[C@@H]3[C@H]1OCc1cn(CCCC(=O)N[C@H](C(=O)N3C[C@H](O)C[C@H]3C(=O)N[C@H](C)c3ccc(-c4scnc4C)cc3)C(C)(C)C)nn1)C2(C)C"
  ASSAYED TARGET: "RAW264.7"
  VALUE OBSERVED: "< 4.30"
- SMILES ENTRY: "C=C1CC[C@H]2[C@@H](/C=C(\\C)C(=O)[C@@]3(O)C[C@H](C)[C@H](O)[C@@H]3[C@H]1OCc1cn(CC(=O)N[C@H](Cc3ccccc3)[C@H](O)C(=O)N[C@@H](CC(C)C)C(=O)OC)nn1)C2(C)C"
  ASSAYED TARGET: "RAW264.7"
  VALUE OBSERVED: "< 4.30"
- SMILES ENTRY: "C=C1CC[C@H]2[C@@H](/C=C(\\C)C(=O)[C@@]3(O)C[C@H](C)[C@H](O)[C@@H]3[C@H]1OCc1cn(CCCCCC(=O)N[C@H](Cc3ccccc3)[C@H](O)C(=O)N[C@@H](CC(C)C)C(=O)OC)nn1)C2(C)C"
  ASSAYED TARGET: "RAW264.7"
  VALUE OBSERVED: "< 4.30"
- SMILES ENTRY: "C=C1CC[C@H]2[C@@H](/C=C(\\C)C(=O)[C@@]3(O)C[C@H](C)[C@H](O)[C@@H]3[C@H]1OCc1cn(CCOCCOCCNC(=O)[C@H](CC(C)C)NC(=O)[C@@H](O)[C@@H](Cc3ccccc3)NC(=O)OC(C)(C)C)nn1)C2(C)C"
  ASSAYED TARGET: "RAW264.7"
  VALUE OBSERVED: "< 4.30"
- SMILES ENTRY: "C=C1CC[C@H]2[C@@H](/C=C(\\C)C(=O)[C@@]3(O)C[C@H](C)[C@H](O)[C@@H]3[C@H]1OCc1cn(CC(=O)N[C@H](C(=O)N3C[C@H](O)C[C@H]3C(=O)NCc3ccc(-c4scnc4C)cc3)C(C)(C)C)nn1)C2(C)C"
  ASSAYED TARGET: "RAW264.7"
  VALUE OBSERVED: "< 4.30"
- SMILES ENTRY: "C=C1CC[C@H]2[C@@H](/C=C(\\C)C(=O)[C@@]3(O)C[C@H](C)[C@H](O)[C@@H]3[C@H]1OCc1cn(CC(=O)N[C@H](C(=O)N3C[C@H](O)C[C@H]3C(=O)N[C@H](C)c3ccc(-c4scnc4C)cc3)C(C)(C)C)nn1)C2(C)C"
  ASSAYED TARGET: "RAW264.7"
  VALUE OBSERVED: "< 4.30"
- SMILES ENTRY: "C=C1CC[C@H]2[C@@H](/C=C(\\C)C(=O)[C@@]3(O)C[C@H](C)[C@H](O)[C@@H]3[C@H]1OCc1cn(CCCCCC(=O)N[C@H](C(=O)N3C[C@H](O)C[C@H]3C(=O)N[C@H](C)c3ccc(-c4scnc4C)cc3)C(C)(C)C)nn1)C2(C)C"
  ASSAYED TARGET: "RAW264.7"
  VALUE OBSERVED: "< 4.30"

Values were extracted from ChEMBL document CHEMBL5257072.
